- test.summary: qHTS Assay for NPC1 Promoter Activators; further: nearly all actives have a fitted effect of over 60% in size;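 on activation: reporter is driven by a mutant NPC1 promoter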
- protocol.conditions: Huh7 NPC1 promoter luciferase reporter, 24 h; series mostly up to 9.22 µM
In all, about 320,000 compounds went through this assay and about 7,600 (2.4%) were called active. About 3% were inconclusive and are not listed. The call rests on the fitted dose curve; in most records, active means well fitted activation curve with a large enough effect; inconclusive means small, poorly fitted or top-dose-only effect; inactive means no such curve, though single readings can be large or run the other way. This is one part of a sample in which actives are shown more often than they occur.
Pick one: active, inactive

Each molecule tested received a call. Report the one for COc1ccc(OCc2cc(C(=O)N3CCCC3)no2)c2ccccc12 .
active

Record: Cc1cc2nc(C)n(CCCNC(=O)Nc3ccccc3)c2cc1C
inactive

Same lookup for CCc1ccc(NC(=O)Cn2nnc(C(=O)NCc3ccc4c(c3)OCO4)c2N)cc1 , please.
inactive

Now try Cn1c(CCN2CCCC2)nc2cc(NS(=O)(=O)c3ccccc3)ccc21 .
inactive

Cool, now CCC(=O)Nc1ccc2c(c1)nc(CCN1CCN(c3ccccn3)CC1)n2C
inactive

Consider next the molecule CN=c1scc(-c2cc(OC)ccc2OC)n1/N=C/c1c(C)[nH]c2ccccc12 in the same way.
inactive

Subsequent entry: CN(C(=O)CSc1nnc(C2CC2)n1C)C1CCCc2ccccc21 (stereo unspecified)
inactive

Record: Nc1c(C(=O)Nc2ccc3c(c2)OCCO3)nnn1Cc1ccccc1
active

Another molecule: O=C(c1cc(-c2cccs2)on1)N1CCCCC1
active

Try COc1cc(Cl)ccc1OCc1cc(C(=O)N2CC[C@@H]3CCCC[C@H]3C2)no1 next.
inactive

Can you handle O=C(Cn1c2[n+](c3ccc(C(F)(F)F)cc31)CCCCC2)Nc1c(F)cccc1F next?
inactive

----------
- test.summary: qHTS Assay for NPC1 Promoter Activators; further: nearly all actives have a fitted effect of over 60% in size;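 on activation: reporter is driven by a mutant NPC1 promoter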
- protocol.conditions: Huh7 NPC1 promoter luciferase reporter, 24 h; series mostly up to 9.22 µM
Screen size: about 320,000 compounds; about 7,600 (2.4%) were called active. Not shown: some 3% with an inconclusive outcome. Calls come from the whole dose curve; as a rule, active = well fitted activation curve with a large enough effect; inconclusive = small, poorly fitted or top-dose-only effect; inactive = no such curve, though single readings can be large or run the other way. The full list was thinned out, with actives kept by preference.
# valid calls are yes = active, no = inactive; nothing else

What did this assay record as the result for CCC(C)NC(=O)CCCc1ccccc1 (configuration not stated) ?
no

Same read-out for CCN(CC)C(CNC(=O)CSc1nnnn1-c1cccc(F)c1)c1ccco1 (configuration not stated) ?
no

Proceed to CCN(c1ccccc1)S(=O)(=O)c1cccc(C(=O)NCc2ccccc2CN2CCOCC2)c1
no

Likewise for CC1(C)CN(c2ccc(-c3ccnc4ncnn34)cc2)C1=O ?
no

Would you mind doing Cc1ccc(NC(=O)O/N=C/c2cccc([N+](=O)[O-])c2)cc1 as well?
no

Let us now turn to O=c1c2cc(-c3ccccc3)sc2nc2n1N=C(c1cccs1)CS2
yes

Query C/C(=N\O)C1(C)N(O)C(C)(C)C(c2ccc(Br)cc2)=[N+]1[O-] (configuration not stated) next
no

Another compound to check: Cc1nnc2n1N=C(c1ccccc1)CS2
no

Try the compound O=C(N/N=C/c1cccc([N+](=O)[O-])c1)C1CC(=O)N(c2ccc(Br)cc2)C1 (configuration not stated)
no

Now give it for Nc1c(C(=O)OCC(=O)Nc2ccc(OC(F)F)cc2)[nH]c(=O)[nH]c1=O too.
no

Param item: Cc1ccc(/C=C/C(=O)OCC(=O)NCc2ccc(Cl)cc2)o1
no

// query: O=C(CCCc1ccccc1)NCc1ccccc1
no

----------
- test.summary: qHTS Assay for NPC1 Promoter Activators; further: nearly all actives have a fitted effect of over 60% in size;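 on activation: reporter is driven by a mutant NPC1 promoter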
- protocol.conditions: Huh7 NPC1 promoter luciferase reporter, 24 h; series mostly up to 9.22 µM
- Description: NIH Chemical Genomics Center [NCGC] NIH Molecular Libraries Probe Production centers Network [MLPCN] […] The NPC1 promoter is cloned in front of the luciferase reporter gene, therefore NPC promoter activation results in luciferase expression. […] 7.#Read using the luminescence protocol on the ViewLux plate reader (Perkin Elmer).
The campaign covered roughly 320,000 compounds. About 7,600 (2.4%) were called active. Not shown: some 3% with an inconclusive outcome. Calls come from the whole dose curve; as a rule, active = well fitted activation curve with a large enough effect; inconclusive = small, poorly fitted or top-dose-only effect; inactive = no such curve, though single readings can be large or run the other way. This excerpt belongs to a sample that is enriched for actives.
Output constraint: value belongs to active, inactive

Answer briefly: the call reported for N#Cc1c(NC(=O)CCCl)sc2c1CCCCC2 in this assay.
inactive

Try this compound too: CCNC(=O)c1cccc(NC(=O)C2CC(=O)N(CCc3ccccc3)C2)c1 (configuration not stated)
inactive

// same read-out, input: Cc1cc(Cl)c2oc(C(=O)N(C)C(C)c3ccccn3)c(C)c2c1 (configuration not stated)
inactive

Same for COc1cccc(C2=CC(=O)C[C@H](c3ccc(F)cc3)C2)c1OC
inactive

Do the same for O=C(NCCS(=O)(=O)NCc1ccc(F)cc1)c1ccccc1 please
inactive

Further, for O=C(CNC(=O)c1ccccc1F)c1ccc(Br)cc1 ?
active

Could you do the same for CCOC(=O)C1CCCN(S(=O)(=O)c2ccc3c(c2)C(C)(C)C(=O)N3C)C1 (configuration not stated) , please?
inactive

Same for Cc1cccc(NC(=O)/C=C/c2ccc3c(c2)OCO3)n1
active

Can you check CC(NC(=O)Nc1ccc2c(c1)OCO2)c1ccncc1 (configuration not stated) next?
inactive

Entry Cc1ccc(NC(=O)Cn2c(C)csc2=O)cc1 please
inactive

Same read-out for Cc1ccc(N=C2NC(=O)c3cccc([N+](=O)[O-])c32)cc1 ?
inactive

Follow-up item: CNc1nc(SC)nc(N(C#N)CC(=O)OC)n1
inactive

Now the same for Cc1sc2ncnc(SCC(=O)Nc3ccc(CN4CCCC4)cc3)c2c1C
inactive

Query Cc1ccc(/C=N/NC(=O)c2cc3ccccc3cc2O)o1 next
inactive

How about this compound: N#Cc1c(NC(=O)C2CC(Cl)=CCC2C(=O)O)sc2c1CCCCC2 (configuration not stated)
inactive

Try this compound too: COc1cccc(/C=C/C(=O)Nc2ccc3c(c2)OCCO3)c1
active

Now the compound Cc1ccc(CSc2ccc(S(=O)(=O)N3CCCCC3)cn2)cc1
inactive

// next record CC(C)C(=O)Nc1c(O)c2ccccc2[nH]c1=O
inactive

Same read-out for CC(=O)c1ccc(OCCCC(=O)Nc2ccc(C)c(S(=O)(=O)N3CCOCC3)c2)cc1 ?
inactive

Next compound: O=C(O)c1cccc(S(=O)(=O)N2CC=C(c3ccccc3)CC2)c1
inactive

Now the same for CC(NC(=O)Nc1cccc([N+](=O)[O-])c1)c1ccc2c(c1)OCO2 (configuration not stated)
inactive

Item: O=C(CSc1nc2ccccc2c(=O)n1CCCO)NC1CC1
inactive

// repeat for Cn1c2cc(B(O)O)sc2c2cnn(Cc3ccccc3F)c(=O)c21 and report
inactive

Please do the same for CC(C)(C)c1csc(NC2=NS(=O)(=O)c3ccccc32)n1 as well.
active

Same for CCCCNC(=O)OC(C)CNC(=O)OC (configuration not stated)
inactive

And the next one, O=C(Nc1ccccc1N1CCCCC1)c1ccc2nccnc2c1 ?
inactive

Also check Cc1cccc(NC(=O)c2cccnc2Cl)n1
inactive

And Cc1cccc(NC(=O)c2ccc3ccccc3n2)n1 ?
active

How about this compound: O=C(Nc1ccccc1Cl)c1ccc2nsnc2c1
active

# iterate: CC(c1ccccn1)N(C)C(=O)c1ccc2nc(Cc3cccc(Cl)c3)oc2c1 (configuration not stated)
active

Also check O=C(O)c1cc(S(=O)(=O)Nc2ccc3cn[nH]c3c2)ccc1Br
inactive

Same read-out for COc1cc(OC)cc(C(=O)NCC(=O)N2CCCCCCC2)c1 ?
inactive

And CCCc1nc2ccccc2c(=O)n1NC(=O)c1c(O)c2ccccc2[nH]c1=O ?
inactive

Also, Cc1cc(C)n2nc(C(=O)OCC(=O)N(C)CC(=O)Nc3ccc(F)cc3)nc2n1 please.
inactive

Entry O=C(/C=C/c1ccc2c(c1)OCO2)NCc1ccc(F)cc1 please
inactive

Let us now turn to O=C(CNC(=O)c1ccc(F)cc1)c1ccccc1
active

Likewise for O=C(CCC(=O)c1ccccc1)NCc1cccc(C(F)(F)F)c1 ?
inactive

Likewise for COc1ccc(CN2CCN(C(=O)c3cc(C4CC4)nn3-c3ccccc3)CC2)cc1F ?
inactive

NS(=O)(=O)c1ccccc1NC(=O)c1c(O)c2ccccc2[nH]c1=O ?
active

Next compound up: O=C(/C=C\c1ccc2c(c1)OCO2)NC1(C(=O)Nc2ccc3c(c2)OCCO3)CCCCC1
inactive

Another: O=C(Oc1cccc(NC2=NS(=O)(=O)c3ccccc32)c1)c1ccncc1
inactive

Item: CNS(=O)(=O)c1ccc(NC(=O)Nc2ccc3c(c2)OCO3)cc1
active

Also, O=c1c2ccccc2nc2n1C(CSc1ccc(Cl)cc1)CN2 (configuration not stated) please.
inactive

Here is the next compound: COCCn1c(C)cc(C2=NNC(=Nc3ccc(F)cc3)SC2)c1C
active

Same for Cc1cccc(NC(=O)Nc2ccc3c(c2)OCO3)n1
active

Another compound to check: N#Cc1c(NC(=O)C2CCCO2)sc2c1CCCCC2 (configuration not stated)
active

Input CCCCC/C=C/C1=CC(=O)C[C@H](c2ccc(Cl)cc2)C1
inactive
